Molecular target: T1, MPP1, Q00013
T1 sequence (Q00013 66-162, limits assumed, looked up): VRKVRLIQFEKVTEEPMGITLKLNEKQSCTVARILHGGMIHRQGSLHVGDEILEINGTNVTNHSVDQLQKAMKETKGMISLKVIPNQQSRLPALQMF
Experiment: holdup assay
Set-up: key: below the threshold = too weak to quantify, mostly under pKd 3.1 to 4
Settings: plain residues with an end cap or a label only (N-terminal biotin on a linker: ttds)
Measured quantity: pKd

Binder: KLVIKTETTV [RASSF6, Q6ZTQ3]
Reported: 5.13
--
Binder: SSIDLWETAL [SLC15A5, A6NIM6]
Reported: below the threshold
--
Binder: SGGKRKETLV [NET1, Q7Z628]
Reported: below the threshold
